Attribute: GI50
- Test system: IGROV-1
- Protocol: NCI tumour cell line growth inhibition, 48 h
The source made the active and inactive calls. Rule as the data show it: active = GI50 up to about 1.1 µM and inactive = higher.
Test readout: GI50

INSERT INTO assay_data (compound, meas_value) VALUES
  ('Cc1ccc2c(c1)Nc1cc(C(F)(F)F)ccc1[PH]2=O (centres undefined)', '25.9 µM (inactive)'),
  ('C[n+]1c(-c2ccc(NC(=O)c3ccc(C(=O)Nc4ccc(-c5cn6ccccc6[n+]5C)cc4)cc3)cc2)cn2ccccc21', '> 66.5 µM (inactive)'),
  ('O=c1[nH]c(-c2ccc(-c3nc4cc([N+](=O)[O-])ccc4c(=O)[nH]3)cc2)nc2cc([N+](=O)[O-])ccc12', '> 100 µM (inactive)'),
  ('Oc1ccc(NCc2cc(O)ccc2O)cc1', '16.4 µM (inactive)'),
  ('NC1=C2C(Br)=CN([C@@H]3O[C@H](CO)[C@@H](O)[C@@H]3O)C2C(=O)N=N1 (some centres undefined)', '3.99 µM (inactive)'),
  ('CC(C)[C@H]1CO[C@]2(C)[C@@H]3CN(Cc4ccccc4)C[C@@H]3C(=O)N12', '> 100 µM (inactive)'),
  ('CCCNC(/C=C/[Si](C)(C)C)CO.CCCNCC(O)/C=C/[Si](C)(C)C (centres undefined)', '> 100 µM (inactive)'),
  ('COc1ccc(C2SC(=N)Nc3c2c(C)nn3C(=O)c2ccc(Cl)cc2)cc1 (centres undefined)', '> 10 µM (inactive)'),
  ('C=C/C(C)=C/[C@H](C)C(=O)C[C@H](O)CC1CC(=O)NC(=O)C1', '19.9 µM (inactive)');

###

- Test system: LOX IMVI
- Protocol: NCI tumour cell line growth inhibition, 48 h
Active and inactive are the calls of the source. Rule as the data show it: active = GI50 up to about 1.1 µM and inactive = higher.
Possible outcomes: 1 (yes) = active, 0 (no) = inactive

INSERT INTO results (compound, cat) VALUES
  ('Cc1ccc2c(O)cc(-c3cc(C)sc3C)nc2n1', '0 (no)'),
  ('Cc1ccc2oc(=O)c(C(=O)Nc3nc(C45CC6CC(CC(C6)C4)C5)cs3)cc2c1', '0 (no)'),
  ('Cc1[nH]c2ccccc2c1/C=N/c1ccc(Oc2ccccc2)cc1', '0 (no)'),
  ('N#CC(=N)c1ncn(CCO)c1NC(=O)C(F)(F)F', '0 (no)'),
  ('Cc1nn2c(=O)n(-c3cccc(-n4nnc5c(-c6ccccc6)c(C)nn5c4=O)c3C)nnc2c1-c1ccccc1', '0 (no)'),
  ('Cc1ccc(S(=O)(=O)c2c3nc4ccccc4nc3n3c2[nH]c2ccccc23)cc1', '0 (no)'),
  ('CC(=O)Nc1ccc(-c2nc3ccccc3s2)cc1', '0 (no)'),
  ('COc1ccc2c(c1)[n+]([O-])c(/C(C)=N/NC(=O)c1ccccc1O)c(C)[n+]2[O-]', '0 (no)'),
  ('CN(C(=O)c1ccc(OCCCC(=O)O)c(Cl)c1Cl)C1CCCC1', '0 (no)'),
  ('O=[N+]([O-])c1ccc(N=P(c2ccccc2)(c2ccccc2)c2ccccc2)n2nnnc12', '0 (no)'),
  ('COC(=O)c1ccc(NC(=O)O/N=C(\Cl)C(C)C)cc1', '0 (no)'),
  ('COC(=O)n1c(C[P+](c2ccccc2)(c2ccccc2)c2ccccc2)cc2ccccc21', '1 (yes)'),
  ('O=C(Cc1ccccc1)NN1C(=O)C(Cl)C1c1cccc([N+](=O)[O-])c1 (configuration not stated)', '0 (no)'),
  ('COc1ccc(C[C@H]2COC(=O)[C@@H]2Cc2cc(OC)c(OC)c(OC)c2)cc1OC', '0 (no)'),
  ('COc1ccc(/C=C2\N=C3Sc4c([nH]cnc4=O)N3C2=O)cc1', '0 (no)'),
  ('COc1cc(Nc2nc3ccc(C(F)(F)F)cc3nc2-c2ccccc2)cc(OC)c1OC', '0 (no)'),
  ('CC(=O)OC1(C)N=NC2(CCCCC2)O1 (configuration not stated)', '0 (no)'),
  ('O=C1c2c(Br)sc(Br)c2[C@@H](NC(=O)C(F)(F)F)C1Br (some centres not stated)', '0 (no)'),
  ('NC[C@H]1Nc2ccccc2[C@@H](O)C1O (some centres not stated)', '0 (no)'),
  ('CN(C)CCCSc1nc2ccccc2[nH]1', '0 (no)'),
  ('CC1(C)c2ccccc2C(=O)C12CCC(=O)CC2', '0 (no)'),
  ('COc1ccccc1Nc1nc(N)nc(N)c1N=O', '0 (no)');

###

- Test system: DMS-114
- Protocol: NCI tumour cell line growth inhibition, 48 h
Activity calls are given as the source filed them. Cut-off read from the data, not from the text of the source: active = GI50 up to about 1.1 µM and inactive = higher.
Classes used: label 1 (active), label 0 (inactive)

INSERT INTO measurements (compound, cat) VALUES
  ('CC1=CC(C)(c2c[nH]c3ccccc23)CC(C)(C)c2c1[nH]c1ccccc21 (stereo not given)', 'label 0'),
  ('CC(/C=C1\CCC(CN(C)C)C1=O)c1cccc(Br)c1 (stereo not given)', 'label 0'),
  ('O=C(CCC1CCCCN1)Nc1ccc2c(c1)C(=O)c1ccc(NC(=O)CCN3CCCCC3)cc1C2=O (stereo not given)', 'label 0'),
  ('COc1cccc2c1C(=O)c1c(O)c3c(c(O)c1C2=O)C[C@@](O)(/C(C)=N\O)C[C@@H]3OC1CC(N)C(O)C(C)O1 (stereo not given in full)', 'label 1'),
  ('BrC1=CC=C2NC=CC3=CC=NC1C32 (stereo not given)', 'label 0'),
  ('Cc1ccc(-c2nnc(-c3nn(-c4ccccc4)c4nc5ccccc5nc34)o2)cc1', 'label 0'),
  ('Nc1nn(CC(O)CO)c(=O)s1 (stereo not given)', 'label 0'),
  ('O=C(NCCCCCCCCCCCCNC(=O)c1cccc2ccccc12)c1cccc2ccccc12', 'label 0'),
  ('COc1ccc(C2C(C(=O)O)=C(COC(C)=O)Oc3cc4c(cc32)OCO4)cc1 (stereo not given)', 'label 0'),
  ('Nc1nnc(N)n1NC(=O)C(=O)Nc1ccc([N+](=O)[O-])cc1', 'label 0');

###

- Test system: SK-MEL-2
- Protocol: NCI tumour cell line growth inhibition, 48 h
The source made the active and inactive calls. No stated cut-off is given here; in the data, active = GI50 up to about 1.1 µM and inactive = higher.
Test readout: GI50

INSERT INTO results (compound, meas_value) VALUES
  ('Nc1[nH]c(=S)[nH]c(=O)c1/N=N/c1c(Br)cc(S(N)(=O)=O)cc1Br', '> 100 µM (inactive)'),
  ('O=CC1C(Cl)=Nc2nc3ccccc3n2C1c1ccccc1 (centres undefined)', '12 µM (inactive)'),
  ('Nc1ccc(C(=O)NN2C(=O)C(Cl)C2c2ccccc2Cl)cc1 (centres undefined)', '11.3 µM (inactive)'),
  ('CC(=O)OC1[C@H](OC(C)=O)C2=C(C)[C@@H](OC(C)=O)C[C@@]2(C(C)(C)O)[C@@H](OC(C)=O)[C@H]2[C@@]1(C)[C@@H](OC(C)=O)CC(OC(C)=O)[C@]21CO1 (some centres undefined)', '> 100 µM (inactive)');

###

Quick list: GI50 per entry.
- Test system: TK-10
- Protocol: NCI tumour cell line growth inhibition, 48 h
Activity calls are given as the source filed them. Rule as the data show it: active = GI50 up to about 1.1 µM and inactive = higher.
Test readout: GI50

INSERT INTO results (compound, meas_value) VALUES
  ('CCN(CC)Cc1nc(C2CCC([N+](=O)[O-])O2)no1 (stereo unspecified)', '> 100 µM (inactive)'),
  ('O=P(O)(O)OP(=O)(O)O', '> 100 µM (inactive)'),
  ('COc1ccc(OC)c(NC(=O)C(=O)Nn2c(S)nc3ccccc3c2=O)c1', '> 100 µM (inactive)'),
  ('CCOC(=O)c1nc2ccccc2nc1Oc1cc(OC)c(OC)c(OC)c1', '51.2 µM (inactive)'),
  ('CN1C2C=C(c3ccccc3)CC1CC2 (stereo unspecified)', '> 100 µM (inactive)'),
  ('N#C/C(=C/c1cccc(Oc2ccccc2)c1)c1ccccc1', '> 100 µM (inactive)'),
  ('Cc1nc2c(=O)n(C)c(=O)nc-2n(CCO)c1C', '> 100 µM (inactive)'),
  ('O=C1Oc2ccc([N+](=O)[O-])cc2N/C1=C\C(=O)c1ccccc1', '25.1 µM (inactive)'),
  ('Cc1ccc(N(C(=O)CC(=O)N2N=C(c3ccccc3)C(/N=N/c3ccc([N+](=O)[O-])cc3)C2=O)C(=O)c2ccc(Cl)cc2)cc1 (stereo unspecified)', '10.9 µM (inactive)'),
  ('NS(=O)(=O)c1cc2c(cc1Cl)NC(/C(=N/NC(=O)c1ccncc1)C1C(=O)NC(=O)NC1=O)=NS2(=O)=O', '> 100 µM (inactive)'),
  ('CC(=O)OC1(C)N=NC2(CCCCC2)O1 (stereo unspecified)', '> 100 µM (inactive)');

###

- Test system: M14
- Protocol: NCI tumour cell line growth inhibition, 48 h
The source made the active and inactive calls. No stated cut-off is given here; in the data, active = GI50 up to about 1.1 µM and inactive = higher.
// reported GI50 for each item listed
Test readout: GI50

INSERT INTO results (compound, meas_value) VALUES
  ('Cc1ccc(NC2=NCCO2)c2c1CCC2', '21 µM (inactive)'),
  ('O=C(CSc1ncccn1)N/N=C/c1ccccc1OCc1ccccc1', '29.2 µM (inactive)'),
  ('C[N+](C)=c1nc(N2CCc3ccccc3C2)ss1.[O-][Cl+3]([O-])([O-])[O-]', '> 100 µM (inactive)'),
  ('CC(C)(C)OC(=O)CC(NC(=O)OC(C)(C)C)C(=O)N[C@@H]1CCCC[C@H]1C(=O)OCc1ccccc1 (stereo partly specified)', '36.1 µM (inactive)'),
  ('COc1ccc(Sc2ccccc2N)cc1', '35.8 µM (inactive)'),
  ('O=[N+]([O-])/C(Cl)=C/C(=C1/Nc2ccccc2O1)[N+](=O)[O-]', '19.8 µM (inactive)'),
  ('COC(=O)C1=COC2OC3/C(=C\c4ccc(O)c(OC)c4)C(=O)OC34C=CC1C24 (stereo unspecified)', '3.37 µM (inactive)'),
  ('Cc1c(O)c(OC2OC(CO)C(O)C(O)C2O)cc2c1C=C[C@@H]1[C@@]2(C)C(=O)C[C@]2(C)[C@@H]([C@@](C)(O)C(O)/C=C/C(C)(C)O)[C@H](O)C[C@@]12C (stereo partly specified)', '> 100 µM (inactive)'),
  ('Oc1ccccc1-c1nn2c(CCCCCCCCc3nnc4sc(-c5ccccc5O)nn34)nnc2s1', '11.2 µM (inactive)'),
  ('CC(=O)Oc1cc2c(=O)oc3c(OC(C)=O)c(OC(C)=O)c(OC(C)=O)c4c(=O)oc(c1OC(C)=O)c2c34', '36.6 µM (inactive)'),
  ('CCOc1cc(NC(C)=O)ccc1C(=O)NN1C(=O)C(Cl)C1c1ccco1 (stereo unspecified)', '15.4 µM (inactive)'),
  ('CCOC(=O)c1nc2ccccc2nc1Nc1ccc(OC)c(OC)c1', '> 100 µM (inactive)'),
  ('CC(=O)OC(C(=O)O)C(OC(C)=O)C(OC(C)=O)C(OC(C)=O)C(=O)O (stereo unspecified)', '> 100 µM (inactive)'),
  ('CCCCCN1C(=O)C(Cc2ccccc2)N=C(c2ccc(O)cc2)c2cc(Cl)ccc21 (stereo unspecified)', '11.2 µM (inactive)'),
  ('CC(C)=CC(=O)Oc1ccc([N+](=O)[O-])cc1', '> 100 µM (inactive)'),
  ('Cc1nc(C)c(C(=O)NNC(N)=S)cc1C(=O)NNC(N)=S', '> 100 µM (inactive)'),
  ('NNC(=O)C(O)C(O)C(O)CO (stereo unspecified)', '> 100 µM (inactive)'),
  ('Cn1cnnc1SC(F)(F)c1nc2ccccc2o1', '> 100 µM (inactive)'),
  ('COc1ccc(-c2nnc3n(Cc4ccccc4)c4ccccc4n3c2=O)cc1', '77.6 µM (inactive)'),
  ('COc1ccc(C2OC(=O)c3c2ccc2ccccc32)c(C)c1 (stereo unspecified)', '1.32 µM (inactive)'),
  ('C=C1c2[nH]c3c([N+](=O)[O-])c(OC)ccc3c2CCN1C(C)=O', '> 100 µM (inactive)');
